Measured values drawn from patent US8431596B2 for this set.

- TARGET_UNDER_TEST: AXL (human catalytic domain) (Homo sapiens, UniProt P30530)
- Construct: purchased Upstate Ltd. 14-512
- Sequence (P30530 473-894): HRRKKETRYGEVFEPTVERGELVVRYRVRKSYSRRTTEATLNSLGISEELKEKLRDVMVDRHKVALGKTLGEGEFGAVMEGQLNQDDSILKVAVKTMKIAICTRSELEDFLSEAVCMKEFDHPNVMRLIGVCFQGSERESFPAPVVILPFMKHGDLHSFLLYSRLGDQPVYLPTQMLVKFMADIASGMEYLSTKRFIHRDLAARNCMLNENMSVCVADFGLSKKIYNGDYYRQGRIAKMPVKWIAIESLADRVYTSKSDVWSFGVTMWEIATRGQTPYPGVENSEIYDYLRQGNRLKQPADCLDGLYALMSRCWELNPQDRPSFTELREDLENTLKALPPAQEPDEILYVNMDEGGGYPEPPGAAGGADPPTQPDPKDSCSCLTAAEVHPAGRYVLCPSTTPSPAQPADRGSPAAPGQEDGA
- ASSAY_INFO: AXL (human catalytic domain) Enzyme Activity Assay (IMAP fluorescence polarisation)
- Format: biochemical
- STATED_CONDITIONS: further data set (WW-001 through WW-169, XX-001 through XX-469, YY-001 through YY-016, ZZ-001 through ZZ-003); 150 μM ATP
MEASUREMENT_KIND: IC50

Answered examples (10):
c1cc(-c2ccncc2)cc(-c2cccc3nc(Nc4ccc(OCCN5CCCC5)cc4)nn23)c1 ... 0.1 to 1 µM
C[C@H](N)COc1ccc(Nc2nc3cccc(-c4ccc5c(c4)OCCO5)n3n2)cc1 ... 0.1 to 1 µM
O=C(Nc1nc2cccc(-c3ccc(CO)cc3)n2n1)C1CC1 ... 1 to 10 µM
CC(C)Oc1ccc(-c2cccc3nc(NC(=O)C4CC4)nn23)cc1 ... 1 to 10 µM
Cc1cc(COc2cccc(-c3cccc4nc(Nc5ccc(OCCN6CCCC6)cc5)nn34)c2)nn1C ... 0.1 to 1 µM
COc1ccc(-c2cccc3nc(Nc4ccc(OCCN5CCCC5)cc4)nn23)nc1 ... 0.1 to 1 µM
O=C(Nc1nc2cccc(-c3ccc(Cl)cc3)n2n1)C1CC1 ... 1 to 10 µM
Clc1cccc(Cn2cc(-c3cccc4nc(Nc5ccc(OCCN6CCCC6)cc5)nn34)cn2)c1 ... 0.1 to 1 µM
NC(=O)c1ccc(-c2cccc3nc(NC(=O)C4CC4)nn23)cc1 ... 1 to 10 µM
Cc1cc(-c2cccc3nc(NC(=O)C4CC4)nn23)ccc1N(C)C ... 0.1 to 1 µM

Below are 6 compounds. Give each one its IC50.
1. O=C(Nc1cccc(-c2cccc3nc(Nc4ccc(OCCN5CCCC5)cc4)nn23)c1)Nc1ccccc1Cl
2. O=C(CCN1CCCCC1)Nc1ccc(Nc2nc3cccc(-c4ccc5c(c4)OCCO5)n3n2)cc1
3. Oc1ccc(-c2cccc3nc(Nc4ccc(OCCN5CCCC5)cc4)nn23)cc1F
4. O=C(Nc1nc2cccc(NCCc3c[nH]c4ccccc34)n2n1)C1CC1
5. COc1cc(Nc2nc3ccnc(-c4ccc5c(c4)OCCO5)n3n2)ccc1OCCN1CCCC1
6. O=C(Nc1nc2cccc(-c3ccc(C(F)(F)F)cc3)n2n1)C1CC1

Reply:
1. 1 to 10 µM
2. 0.1 to 1 µM
3. 0.1 to 1 µM
4. 1 to 10 µM
5. 0.1 to 1 µM
6. 1 to 10 µM

Below are 4 compounds. Give each one its IC50.
1. c1cc(-c2ccc3c(c2)OCCO3)n2nc(Nc3ccc(SCCN4CCCC4)cc3)nc2c1
2. O=C(Nc1nc2cccc(-c3ccc(F)c(F)c3)n2n1)C1CC1
3. Fc1ccc(CNc2cccc(-c3cccc4nc(Nc5ccc(OCCN6CCCC6)cc5)nn34)c2)cc1
4. Cc1nc(C)c(CNc2cccc(-c3cccc4nc(Nc5ccc(OCCN6CCCC6)cc5)nn34)c2)s1

Reply:
1. 0.1 to 1 µM
2. 1 to 10 µM
3. 0.1 to 1 µM
4. 0.1 to 1 µM
